Where these numbers come from: ChEMBL document CHEMBL2390903

Test system: Mycobacterium tuberculosis
Assay: Antitubercular activity against Mycobacterium tuberculosis H37Rv assessed as growth inhibition after 2 to 3 weeks by broth microdilution method
Type: functional
Note to self: use True only for MIC readings below 4 µg/mL; a reading exactly at 4 µg/mL still gets False.

Task item: Strictly below 4 µg/mL in MIC? Cc1ccccc1-c1cc(CN2CCN(c3ccc(N4C[C@H](Cn5cc(-c6cncn6C)nn5)OC4=O)cc3F)CC2)c(C)n1-c1ccc(F)c(F)c1
Reply: False

Task item: Strictly below 4 µg/mL in MIC? CO[C@H]1/C=C/O[C@@]2(C)Oc3c(C)c(O)c4c(O)c(c(/C=N/N5CCN(C)CC5)c(O)c4c3C2=O)NC(=O)/C(C)=C\C=C\[C@H](C)[C@H](O)[C@@H](C)[C@@H](O)[C@@H](C)[C@H](OC(C)=O)[C@@H]1C
Reply: True

Task item: Strictly below 4 µg/mL in MIC? CC(=O)NC[C@H]1CN(c2ccc(N3CCN(Cc4cc(-c5cccc(Cl)c5)n(-c5ccccc5F)c4C)CC3)c(F)c2)C(=O)O1
Reply: False

Task item: Strictly below 4 µg/mL in MIC? Cc1c(CN2CCN(c3ccc(N4C[C@H](Cn5cc(-c6ccccc6)nn5)OC4=O)cc3F)CC2)cc(-c2ccc(Cl)c(F)c2)n1-c1ccc(OC(F)(F)F)cc1
Reply: False

Task item: Strictly below 4 µg/mL in MIC? Cc1cccc(-c2cn(C[C@H]3CN(c4ccc(N5CCN(Cc6cc(-c7ccccc7C)n(-c7ccc(F)cc7)c6C)CC5)c(F)c4)C(=O)O3)nn2)c1
Reply: False

Task item: Strictly below 4 µg/mL in MIC? Cc1ccc(-c2cc(CN3CCN(c4ccc(N5C[C@H](Cn6cc(-c7ccccc7)nn6)OC5=O)cc4F)CC3)c(C)n2-c2ccc(Cl)c(Cl)c2)cc1
Reply: False

Task item: Strictly below 4 µg/mL in MIC? Cc1c(CN2CCN(c3ccc(N4C[C@H](Cn5cc(-c6ccccc6)nn5)OC4=O)cc3F)CC2)cc(-c2cccc(Cl)c2)n1-c1ccccc1F
Reply: False

Task item: Strictly below 4 µg/mL in MIC? Cc1c(CN2CCN(c3ccc(N4C[C@H](Cn5cc(-c6cncn6C)nn5)OC4=O)cc3F)CC2)cc(-c2ccc(F)cc2F)n1-c1ccc(F)cc1
Reply: False

Task item: Strictly below 4 µg/mL in MIC? CC(=O)NC[C@H]1CN(c2ccc(N3CCOCC3)c(F)c2)C(=O)O1
Reply: True

Task item: Strictly below 4 µg/mL in MIC? Cc1ccccc1-c1cc(CN2CCN(c3ccc(N4C[C@H](Cn5cc(-c6cncn6C)nn5)OC4=O)cc3F)CC2)c(C)n1-c1ccc(F)cc1
Reply: True

Task item: Strictly below 4 µg/mL in MIC? CC(=O)NC[C@H]1CN(c2ccc(N3CCN(Cc4cc(-c5ccc(F)cc5F)n(-c5cc(F)ccc5Br)c4C)CC3)c(F)c2)C(=O)O1
Reply: False

Task item: Strictly below 4 µg/mL in MIC? Cc1c(CN2CCN(c3ccc(N4C[C@H](Cn5cc(-c6ccccc6)nn5)OC4=O)cc3F)CC2)cc(-c2ccc(F)cc2F)n1-c1cc(F)ccc1Br
Reply: False
